Tested on: rodent lifetime carcinogenesis bioassay, tumor incidence TD50
Experiment: carcinogenic potency in animals, long-term in vivo studies, CPDB compilation (AID 1745844)
Settings: rat; strain Fischer 344; females; in feed; site: urinary bladder; lesion: squamous-cell papilloma; dosed 103 weeks; study length 104 weeks
Value Kind: TD50

TD50 in this record for Nc1ccc(N)c2c1C(=O)c1c(N)ccc(N)c1C2=O : 1020 mg/kg/day

* * *

Tested on: rodent lifetime carcinogenesis bioassay, tumor incidence TD50
Experiment: carcinogenic potency in animals, long-term in vivo studies, CPDB compilation (AID 1745844)
Conditions: mouse; strain B6C3F1; males; in feed; site: liver; lesion: hepatocellular carcinoma; dosed 80 weeks; study length 92 weeks
Value Kind: TD50

Short answer on rodent lifetime carcinogenesis bioassay, tumor incidence TD50 for COP(=O)(OC)OC(=CCl)c1cc(Cl)c(Cl)cc1Cl , TD50: 466 mg/kg/day

* * *

System: rodent lifetime carcinogenesis bioassay, tumor incidence TD50
Test: carcinogenic potency in animals, long-term in vivo studies, CPDB compilation (AID 1745844)
Conditions: mouse; strain B6C3F1; males; in drinking water; site: liver; lesion: hemangioma; dosed 104 weeks; study length 104 weeks
Value Kind: TD50 (mg/kg/day)
Form entry: value (mg/kg/day) — number only.

TD50 in this record for [Na+] : 9550

* * *

System: rodent lifetime carcinogenesis bioassay, tumor incidence TD50
Experiment: carcinogenic potency in animals, long-term in vivo studies, CPDB compilation (AID 1745844)
Conditions: rat; strain Fischer 344; males; by gavage; site: forestomach; lesion: squamous-cell carcinoma; dosed 104 weeks; study length 107 weeks
Value Kind: TD50

Short answer on rodent lifetime carcinogenesis bioassay, tumor incidence TD50 for c1ccc(C2CO2)cc1 (stereo unspecified) , TD50: 81.6 mg/kg/day

* * *

System: rodent lifetime carcinogenesis bioassay, tumor incidence TD50
Assay: carcinogenic potency in animals, long-term in vivo studies, CPDB compilation (AID 1745844)
Conditions: mouse; strain B6C3F1; males; in feed; site: forestomach; lesion: squamous-cell papilloma; dosed 96 weeks; study length 106 weeks
Activity calls are given as the source filed them. How the calls were made is not given here.
Value Kind: TD50

TD50 in this record for CC : 240000 mg/kg/day (inactive)

* * *

Test system: rodent lifetime carcinogenesis bioassay, tumor incidence TD50
Test: carcinogenic potency in animals, long-term in vivo studies, CPDB compilation (AID 1745844)
Settings: mouse; strain B6C3F1; males; in feed; site: all sites; lesion: angiosarcoma + hemangiosarcoma; dosed 103 weeks; study length 104 weeks
Value Kind: TD50

TD50 in this record for Nc1ccccc1-c1ccccc1 : 1810 mg/kg/day

* * *

Tested on: rodent lifetime carcinogenesis bioassay, tumor incidence TD50
Assay: carcinogenic potency in animals, long-term in vivo studies, CPDB compilation (AID 1745844)
Conditions: mouse; strain B6C3F1; females; in feed; site: ovary; lesion: mixed tumor, benign + tubular adenoma; dosed 103 weeks; study length 105 weeks
Value Kind: TD50

TD50 in this record for O=C1CN(N=Cc2ccc([N+](=O)[O-])o2)C(=O)N1 : 1400 mg/kg/day

* * *

Tested on: rodent lifetime carcinogenesis bioassay, tumor incidence TD50
Assay: carcinogenic potency in animals, long-term in vivo studies, CPDB compilation (AID 1745844)
Settings: rat; strain F344/DuCrj; females; in feed; site: skin; lesion: squamous-cell carcinoma; dosed 72 weeks; study length 72 weeks
Value Kind: TD50

TD50 in this record for Cn1c(N)nc2c3cccnc3ccc21 : 63.2 mg/kg/day

* * *

Tested on: rodent lifetime carcinogenesis bioassay, tumor incidence TD50
Assay: carcinogenic potency in animals, long-term in vivo studies, CPDB compilation (AID 1745844)
Settings: rat; strain Fischer 344; males; inhaled; site: lung + nasal cavity; lesion: alveolar/bronchiolar adenoma + alveolar/bronchiolar carcinoma + papillary adenoma; dosed 103 weeks; study length 105 weeks
Value Kind: TD50

TD50 in this record for CCC1CO1 (stereo unspecified) : 106 mg/kg/day

* * *

System: rodent lifetime carcinogenesis bioassay, tumor incidence TD50
Test: carcinogenic potency in animals, long-term in vivo studies, CPDB compilation (AID 1745844)
Conditions: rat; strain Fischer 344; females; by gavage; site: lung; lesion: alveolar/bronchiolar carcinoma; dosed 130 weeks; study length 130 weeks
Value Kind: TD50

TD50 in this record for CN(CCCO)N=O : 24.9 mg/kg/day

* * *

Tested on: rodent lifetime carcinogenesis bioassay, tumor incidence TD50
Experiment: carcinogenic potency in animals, long-term in vivo studies, CPDB compilation (AID 1745844)
Settings: mouse; strain B6C3F1; males; in feed; site: any site (literature study); lesion: several types; types named in the paper; dosed 80 weeks; study length 92 weeks
Value Kind: TD50 (mg/kg/day)
Form entry: value (mg/kg/day) — number only.

TD50 in this record for COP(=O)(OC)OC(=CCl)c1cc(Cl)c(Cl)cc1Cl : 295

* * *

Tested on: rodent lifetime carcinogenesis bioassay, tumor incidence TD50
Assay: carcinogenic potency in animals, long-term in vivo studies, CPDB compilation (AID 1745844)
Conditions: mouse; strain Charles River CD1; males; in feed; site: liver; lesion: hepatocellular adenoma; dosed 79 weeks; study length 79 weeks
Value Kind: TD50

TD50 in this record for CCCCOCCOCCOCc1cc2c(cc1CCC)OCO2 : 160 mg/kg/day

* * *

Test system: rodent lifetime carcinogenesis bioassay, tumor incidence TD50
Experiment: carcinogenic potency in animals, long-term in vivo studies, CPDB compilation (AID 1745844)
Conditions: rat; strain Fischer 344; males; oral dosing; site: all sites + skin of foot and toe + skin of back + skin of flank + skin; lesion: leukemia + lymphoma + keratoacanthoma + basal-cell tumor + papilloma, NOS + sebaceous adenoma + sebaceous adenoma and adenocarcinoma; dosed 78 weeks; study length 104 weeks
Value Kind: TD50 (mg/kg/day)
Form entry: value (mg/kg/day) — number only.

TD50 in this record for COc1cc(-c2ccc(N=C=O)c(OC)c2)ccc1N=C=O : 742

* * *

Tested on: rodent lifetime carcinogenesis bioassay, tumor incidence TD50
Assay: carcinogenic potency in animals, long-term in vivo studies, CPDB compilation (AID 1745844)
Details: rat; strain Sprague-Dawley; females; in feed; site: liver; lesion: cholangioma; dosed 104 weeks; study length 104 weeks
Value Kind: TD50 (mg/kg/day)
Form entry: value (mg/kg/day) — number only.

- Structure Smiles: "Clc1ccc(-c2ccc(Cl)c(Cl)c2Cl)c(Cl)c1Cl"
  Measurement Units: "mg/kg/day"
  TD50: 98.2

Turning now to a further record.
TD50 in this record for Clc1cccc(-c2ccc(Cl)c(Cl)c2Cl)c1Cl : 15.3

* * *

Tested on: rodent lifetime carcinogenesis bioassay, tumor incidence TD50
Experiment: carcinogenic potency in animals, long-term in vivo studies, CPDB compilation (AID 1745844)
Settings: mouse; strain Swiss; males; by gavage; site: lung; lesion: several types; types named in the paper; dosed 95 weeks; study length 95 weeks
Calls of active or inactive are those of the source. The rule behind the calls is not given here.
Response enum: yes for active, no for inactive

- Structure Smiles: "CC(=O)NNC(C)=O"
  Assigned Label: "no"

Field: next molecule
[Q] Outcome? CC(=O)NN
[A] yes

* * *

Test system: rodent lifetime carcinogenesis bioassay, tumor incidence TD50
Test: carcinogenic potency in animals, long-term in vivo studies, CPDB compilation (AID 1745844)
Conditions: rat; strain F344/DuCrj; males; in drinking water; site: ear duct; lesion: several types; types named in the paper; dosed 50 weeks; study length 50 weeks
Value Kind: TD50

TD50 in this record for CCCCN(N=O)C(N)=O : 11.8 mg/kg/day

* * *

Tested on: rodent lifetime carcinogenesis bioassay, tumor incidence TD50
Assay: carcinogenic potency in animals, long-term in vivo studies, CPDB compilation (AID 1745844)
Conditions: rat; strain Colworth (Wistar derived); males; in drinking water; site: liver; lesion: hepatocellular tumor; dosed 176 weeks; study length 176 weeks
Value Kind: TD50

TD50 in this record for CN(C)N=O : 0.157 mg/kg/day

* * *

Tested on: rodent lifetime carcinogenesis bioassay, tumor incidence TD50
Assay: carcinogenic potency in animals, long-term in vivo studies, CPDB compilation (AID 1745844)
Conditions: mouse; strain B6C3F1; females; by gavage; site: all sites; lesion: lymphoma; dosed 52 weeks; study length 82 weeks
Value Kind: TD50

TD50 in this record for C[C@]12CC[C@@H]3c4ccc(OC(=O)Cc5ccc(N(CCCl)CCCl)cc5)cc4CC[C@H]3[C@@H]1CC[C@@H]2OC(=O)Cc1ccc(N(CCCl)CCCl)cc1 : 2.23 mg/kg/day

* * *

Tested on: rodent lifetime carcinogenesis bioassay, tumor incidence TD50
Assay: carcinogenic potency in animals, long-term in vivo studies, CPDB compilation (AID 1745844)
Conditions: rat; strain F344/DuCrj; males; by gavage; site: testis; lesion: interstitial-cell tumor; dosed 104 weeks; study length 104 weeks
Active and inactive are the calls of the source. No rule for the calls is given here.
Value Kind: TD50

TD50 in this record for OCC(CO)N[C@H]1C[C@](O)(CO)[C@@H](O)[C@H](O)[C@H]1O : 9.27 mg/kg/day (inactive)

* * *

Test system: rodent lifetime carcinogenesis bioassay, tumor incidence TD50
Assay: carcinogenic potency in animals, long-term in vivo studies, CPDB compilation (AID 1745844)
Settings: rat; strain MRC; females; by gavage; site: liver; lesion: several types; types named in the paper; dosed 67 weeks; study length 76 weeks
Value Kind: TD50

TD50 in this record for CC(=O)CN(C)N=O : 0.268 mg/kg/day
